biological target: Cytochrome P450 2D6 (Homo sapiens); test: Inhibition of CYP2D6 (unknown origin); type: ADME
Sequence (P10635 whole entry): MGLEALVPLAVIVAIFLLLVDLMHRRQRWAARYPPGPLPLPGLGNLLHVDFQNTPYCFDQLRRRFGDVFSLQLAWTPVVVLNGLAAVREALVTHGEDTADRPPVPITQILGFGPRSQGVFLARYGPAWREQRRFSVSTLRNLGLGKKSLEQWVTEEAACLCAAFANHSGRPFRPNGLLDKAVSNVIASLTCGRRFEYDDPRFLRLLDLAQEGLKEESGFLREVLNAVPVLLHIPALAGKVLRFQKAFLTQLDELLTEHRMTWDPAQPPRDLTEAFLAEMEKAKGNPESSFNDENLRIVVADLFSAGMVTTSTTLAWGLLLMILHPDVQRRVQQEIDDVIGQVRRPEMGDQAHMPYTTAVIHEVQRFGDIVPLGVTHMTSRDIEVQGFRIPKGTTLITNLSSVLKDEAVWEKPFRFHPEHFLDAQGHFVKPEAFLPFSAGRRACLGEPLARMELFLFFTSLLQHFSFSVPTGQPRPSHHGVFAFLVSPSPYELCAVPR
value.kind: inhibition (INH) (%)
Give bare numbers, in %.

In the examples that follow, each entry is paired with its recorded inhibition (INH).
CCc1nc2c(C)cn(Cc3ccccc3C#N)c(=O)c2n1[C@H]1CCc2cc(-c3ccccc3-c3nnn[nH]3)ccc21	0
CCc1nc2c(C)cn(Cc3ccccc3C)c(=O)c2n1[C@H]1CCc2cc(-c3ccccc3-c3nnn[nH]3)ccc21	4.5
CCc1nc2ccn(Cc3ccccc3C)c(=O)c2n1[C@H]1CCc2cc(-c3ccccc3-c3nnn[nH]3)ccc21	6

// next item, inhibition (INH) requested
The compound CCc1nc2ccn(Cc3ccccc3C#N)c(=O)c2n1[C@H]1CCc2cc(-c3ccccc3-c3nnn[nH]3)ccc21 showed inhibition (INH) equal to 11

----------
Field: logD. Provide a value for each of the molecules that follow.
test: Octanol-buffer distribution co-efficient, log D of the compound by shake-flask method; format: physicochemical

In the examples that follow, each entry is paired with its recorded logD.
CCc1nc2c(C)cn(Cc3ccccc3C)c(=O)c2n1[C@H]1CCc2cc(-c3ccccc3-c3nnn[nH]3)ccc21	2.9
CCc1nc2ccn(Cc3ccccc3C#N)c(=O)c2n1[C@H]1CCc2cc(-c3ccccc3-c3nnn[nH]3)ccc21	1.7
CCc1nc2c(C)cn(Cc3ccccc3C#N)c(=O)c2n1[C@H]1CCc2cc(-c3ccccc3-c3nnn[nH]3)ccc21	2.5

// next item, logD requested
The molecule CCc1nc2ccn(Cc3ccccc3C)c(=O)c2n1[C@H]1CCc2cc(-c3ccccc3-c3nnn[nH]3)ccc21 showed logD equal to 2.6

----------
Field: solubility kinetic. Provide a value for each of the compounds that follow.
experiment: Kinetic solubility of the compound in potassium phosphate buffer at pH 6.5; format: physicochemical; conditions: read-out: Kinetic_solubility
Numbers only, in µM.

In the examples that follow, each entry is paired with its recorded solubility kinetic.
CCc1nc2ccn(Cc3ccccc3C#N)c(=O)c2n1[C@H]1CCc2cc(-c3ccccc3-c3nnn[nH]3)ccc21	11.7
CCc1nc2c(C)cn(Cc3ccccc3C#N)c(=O)c2n1[C@H]1CCc2cc(-c3ccccc3-c3nnn[nH]3)ccc21	5.2

The compound CCc1nc2ccn(Cc3ccccc3C)c(=O)c2n1[C@H]1CCc2cc(-c3ccccc3-c3nnn[nH]3)ccc21 showed solubility kinetic equal to 3.5

----------
target: Cytochrome P450 3A4 (Homo sapiens); assay: Inhibition of CYP3A4 (unknown origin); format: ADME
Sequence (P08684 whole entry): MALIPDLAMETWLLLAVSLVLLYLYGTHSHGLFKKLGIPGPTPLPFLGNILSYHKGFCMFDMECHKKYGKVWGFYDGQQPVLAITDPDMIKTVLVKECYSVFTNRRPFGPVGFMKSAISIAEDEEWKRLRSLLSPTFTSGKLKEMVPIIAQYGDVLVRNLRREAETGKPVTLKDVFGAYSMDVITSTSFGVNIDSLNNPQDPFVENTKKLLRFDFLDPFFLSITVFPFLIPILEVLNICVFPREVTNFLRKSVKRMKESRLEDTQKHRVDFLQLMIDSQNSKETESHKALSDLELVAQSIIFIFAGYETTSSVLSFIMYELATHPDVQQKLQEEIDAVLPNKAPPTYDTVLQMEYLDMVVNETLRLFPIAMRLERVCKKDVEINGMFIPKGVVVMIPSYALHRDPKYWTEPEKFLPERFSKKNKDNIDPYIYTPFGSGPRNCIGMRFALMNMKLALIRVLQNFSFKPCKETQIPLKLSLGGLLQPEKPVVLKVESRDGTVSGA
value.kind: inhibition (INH) (%)
One number for each entry, in %.

State recorded inhibition (INH) for all listed compounds.
1. CCc1nc2ccn(Cc3ccccc3C)c(=O)c2n1[C@H]1CCc2cc(-c3ccccc3-c3nnn[nH]3)ccc21
2. CCc1nc2c(C)cn(Cc3ccccc3C#N)c(=O)c2n1[C@H]1CCc2cc(-c3ccccc3-c3nnn[nH]3)ccc21

## Output
[14, 0]

State recorded inhibition (INH) for all listed compounds.
1. CCc1nc2ccn(Cc3ccccc3C#N)c(=O)c2n1[C@H]1CCc2cc(-c3ccccc3-c3nnn[nH]3)ccc21
2. CCc1nc2c(C)cn(Cc3ccccc3C)c(=O)c2n1[C@H]1CCc2cc(-c3ccccc3-c3nnn[nH]3)ccc21

## Output
1: 31; 2: 3.5

----------
target: Peroxisome proliferator-activated receptor gamma (Homo sapiens); assay: Partial agonist activity at human PPARgamma-LBD/Gal4 DNA binding domain by transactivation assay
Sequence (P37231 whole entry, the tested form may be a part): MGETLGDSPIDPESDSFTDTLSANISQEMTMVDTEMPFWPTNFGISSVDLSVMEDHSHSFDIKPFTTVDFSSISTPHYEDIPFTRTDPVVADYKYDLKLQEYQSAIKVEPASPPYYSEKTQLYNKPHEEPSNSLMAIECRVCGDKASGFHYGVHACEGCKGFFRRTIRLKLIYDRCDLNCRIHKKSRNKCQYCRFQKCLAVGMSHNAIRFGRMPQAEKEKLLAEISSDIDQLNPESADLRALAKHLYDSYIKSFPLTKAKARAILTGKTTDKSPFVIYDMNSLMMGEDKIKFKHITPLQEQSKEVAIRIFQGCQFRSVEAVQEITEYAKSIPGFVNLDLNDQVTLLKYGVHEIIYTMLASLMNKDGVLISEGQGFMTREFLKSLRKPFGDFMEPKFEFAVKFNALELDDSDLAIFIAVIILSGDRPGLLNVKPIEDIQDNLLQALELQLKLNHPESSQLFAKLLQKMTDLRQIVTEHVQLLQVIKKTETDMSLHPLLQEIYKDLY
Lab note: compare EC50 with 200 nM, writing t if less and f if equal or more.

CCc1nc2cc[nH]c(=O)c2n1[C@H]1CCc2cc(-c3ccccc3-c3nnn[nH]3)ccc21	f
CCc1nc2ccn(CC(=O)N(C)C)c(=O)c2n1[C@H]1CCc2cc(-c3ccccc3-c3nnn[nH]3)ccc21	f
CCc1nc2ccn(Cc3cccc(C)c3)c(=O)c2n1[C@H]1CCc2cc(-c3ccccc3-c3nnn[nH]3)ccc21	t
CCc1nc2c(C)cn(Cc3ccccc3C)c(=O)c2n1[C@H]1CCc2cc(-c3ccccc3-c3nnn[nH]3)ccc21	t

Now for another entry.
## Input Bench note: check whether CCc1nc2ccn(Cc3ccccc3C#N)c(=O)c2n1[C@H]1CCc2cc(-c3ccccc3-c3nnn[nH]3)ccc21 shows EC50 below 200 nM
## Output f

----------
Field: EC50. Provide a value for each of the compounds that follow.
target: Peroxisome proliferator-activated receptor gamma (Homo sapiens); assay: Partial agonist activity at human PPARgamma-LBD/Gal4 DNA binding domain by transactivation assay
Numbers only, in nM.

In the examples that follow, each entry is paired with its recorded EC50.
CCc1nc2ccn(Cc3ccccn3)c(=O)c2n1[C@H]1CCc2cc(-c3ccccc3-c3nnn[nH]3)ccc21	3580
CCc1nc2ccn(Cc3ccccc3)c(=O)c2n1[C@H]1CCc2cc(-c3ccccc3-c3nnn[nH]3)ccc21	292
CCc1nc2ccn(Cc3ccccc3F)c(=O)c2n1[C@H]1CCc2cc(-c3ccccc3-c3nnn[nH]3)ccc21	103
CCc1nc2ccn(Cc3ccccc3OC(F)(F)F)c(=O)c2n1[C@H]1CCc2cc(-c3ccccc3-c3nnn[nH]3)ccc21	20
CCc1nc2ccn(CC3CCCCC3)c(=O)c2n1[C@H]1CCc2cc(-c3ccccc3-c3nnn[nH]3)ccc21	942
CCc1nc2ccn(Cc3ccccc3C)c(=O)c2n1[C@H]1CCc2cc(-c3ccccc3-c3nnn[nH]3)ccc21	97

State recorded EC50 for all listed compounds.
1. CCc1nc2ccn(Cc3cccc(F)c3)c(=O)c2n1[C@H]1CCc2cc(-c3ccccc3-c3nnn[nH]3)ccc21
2. CCc1nc2ccn(Cc3ccccc3C(F)(F)F)c(=O)c2n1[C@H]1CCc2cc(-c3ccccc3-c3nnn[nH]3)ccc21

## Output
1. 159
2. 187
